# reported Ratio (-BP/+BP), DF-5000006; entries follow
Target: T1, IL-18 binding protein (IL-18BP) (UniProt O95998 31-194)
T1 sequence (looked up): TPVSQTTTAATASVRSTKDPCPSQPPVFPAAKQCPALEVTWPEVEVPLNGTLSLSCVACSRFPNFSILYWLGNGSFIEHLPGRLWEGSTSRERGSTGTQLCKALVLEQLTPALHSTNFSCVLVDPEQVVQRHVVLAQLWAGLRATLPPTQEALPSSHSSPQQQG
Test: cell-based or functional assay
// return a plain number; no unit text

IL-18 variant G3P, E6R, K53T, D54Y, S55I, T63V, N91G, R104K (ligand) YFPKLRSKLSVIRNLNDQVLFIDQGNRPLFEDMTDSDMRDNAPRTIFIISMYTYIQPRGMAVVISVKSEKISTLSSENKIISFKEMNPPDGIKDTKSDIIFFQKSVPGHDNKMQFESSSYEGYFLASEKERDLFKLILKKEDELGDRSIMFTVQNED    0.96
IL-18 variant G3P, E6G, D54T, S55W, N91E, R104K (ligand) YFPKLGSKLSVIRNLNDQVLFIDQGNRPLFEDMTDSDMRDNAPRTIFIISMYKTWQPRGMAVTISVKSEKISTLSSENKIISFKEMNPPDEIKDTKSDIIFFQKSVPGHDNKMQFESSSYEGYFLASEKERDLFKLILKKEDELGDRSIMFTVQNED    1.06
IL-18 variant G3Q, E6S, S55V, T63A, N91T (ligand) YFQKLSSKLSVIRNLNDQVLFIDQGNRPLFEDMTDSDMRDNAPRTIFIISMYKDVQPRGMAVAISVKSEKISTLSSENKIISFKEMNPPDTIKDTKSDIIFFQRSVPGHDNKMQFESSSYEGYFLASEKERDLFKLILKKEDELGDRSIMFTVQNED    4.03
IL-18 variant E6G, D54A, S55K, T63S, N91K, Q114R (ligand) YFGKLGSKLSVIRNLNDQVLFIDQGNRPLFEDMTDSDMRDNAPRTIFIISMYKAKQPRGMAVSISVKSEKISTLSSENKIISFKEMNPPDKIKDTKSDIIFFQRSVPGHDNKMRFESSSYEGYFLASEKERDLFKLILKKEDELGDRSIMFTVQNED    1.54
IL-18 variant G3Q, E6Q, K53T, D54W, S55F, N91Y (ligand) YFQKLQSKLSVIRNLNDQVLFIDQGNRPLFEDMTDSDMRDNAPRTIFIISMYTWFQPRGMAVTISVKSEKISTLSSENKIISFKEMNPPDYIKDTKSDIIFFQRSVPGHDNKMQFESSSYEGYFLASEKERDLFKLILKKEDELGDRSIMFTVQNED    1.21
IL-18 variant E6N, D54N, S55N, N91H, R104P (ligand) YFGKLNSKLSVIRNLNDQVLFIDQGNRPLFEDMTDSDMRDNAPRTIFIISMYKNNQPRGMAVTISVKSEKISTLSSENKIISFKEMNPPDHIKDTKSDIIFFQPSVPGHDNKMQFESSSYEGYFLASEKERDLFKLILKKEDELGDRSIMFTVQNED    0.93
IL-18 variant G3L, E6N, I22M, T63V, N91T, R104P (ligand) YFLKLNSKLSVIRNLNDQVLFMDQGNRPLFEDMTDSDMRDNAPRTIFIISMYKDSQPRGMAVVISVKSEKISTLSSENKIISFKEMNPPDTIKDTKSDIIFFQPSVPGHDNKMQFESSSYEGYFLASEKERDLFKLILKKEDELGDRSIMFTVQNED    0.82
IL-18 variant G3I, E6D, D54A, S55F, N91Y, R104H (ligand) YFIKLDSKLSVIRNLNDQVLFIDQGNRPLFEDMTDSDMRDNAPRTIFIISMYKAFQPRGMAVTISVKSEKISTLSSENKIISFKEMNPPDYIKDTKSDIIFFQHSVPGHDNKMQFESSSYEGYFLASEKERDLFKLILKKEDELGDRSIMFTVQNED    1.35

Q: Please give the measured Ratio (-BP/+BP), DF-5000006 for this binder: IL-18 variant G3P, E6N, D54Y, T63S, N91S, R104Q (ligand) YFPKLNSKLSVIRNLNDQVLFIDQGNRPLFEDMTDSDMRDNAPRTIFIISMYKYSQPRGMAVSISVKSEKISTLSSENKIISFKEMNPPDSIKDTKSDIIFFQQSVPGHDNKMQFESSSYEGYFLASEKERDLFKLILKKEDELGDRSIMFTVQNED
A: 1.02

Q: Requested field: Ratio (-BP/+BP), DF-5000006. Item: IL-18 variant G3Q, E6H, K53T, D54S, S55Y, N91Y, R104K (ligand) YFQKLHSKLSVIRNLNDQVLFIDQGNRPLFEDMTDSDMRDNAPRTIFIISMYTSYQPRGMAVTISVKSEKISTLSSENKIISFKEMNPPDYIKDTKSDIIFFQKSVPGHDNKMQFESSSYEGYFLASEKERDLFKLILKKEDELGDRSIMFTVQNED
A: 1.08

Q: Please look up its Ratio (-BP/+BP), DF-5000006: IL-18 variant G3Y, E6S, K53S, D54W, S55L, T63S, N91I (ligand) YFYKLSSKLSVIRNLNDQVLFIDQGNRPLFEDMTDSDMRDNAPRTIFIISMYSWLQPRGMAVSISVKSEKISTLSSENKIISFKEMNPPDIIKDTKSDIIFFQRSVPGHDNKMQFESSSYEGYFLASEKERDLFKLILKKEDELGDRSIMFTVQNED
A: 0.99

Q: Name the recorded Ratio (-BP/+BP), DF-5000006 for IL-18 variant G3P, E6H, N91L (ligand) YFPKLHSKLSVIRNLNDQVLFIDQGNRPLFEDMTDSDMRDNAPRTIFIISMYKDSQPRGMAVTISVKSEKISTLSSENKIISFKEMNPPDLIKDTKSDIIFFQRSVPGHDNKMQFESSSYEGYFLASEKERDLFKLILKKEDELGDRSIMFTVQNED .
A: 0.97

Q: Suppose we examine the binder IL-18 variant G3P, E6G, D54P, S55W, N91E, R104K (ligand) YFPKLGSKLSVIRNLNDQVLFIDQGNRPLFEDMTDSDMRDNAPRTIFIISMYKPWQPRGMAVTISVKSEKISTLSSENKIISFKEMNPPDEIKDTKSDIIFFQKSVPGHDNKMQFESSSYEGYFLASEKERDLFKLILKKEDELGDRSIMFTVQNED ; what Ratio (-BP/+BP), DF-5000006 value has been reported?
A: 0.84
